Each entry below carries its reported normalized growth.
Assay: chemical genetic growth profiling, strain panel (AID 1159580);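 further: tested at 20 µM; growth read once vehicle control cultures reached saturation at 30 °C; 1 = growth at the plate median or of vehicle wells; lower values mean less growth of the strain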
Settings: S. cerevisiae deletion strains, growth OD, locus YML070W, strain DAK1, active compounds read low
Among all 5,500 compounds or so, about 2,000 (36%) were called active. Roughly 18% stayed inconclusive and do not appear here. This is one part of the list.
Keep the answer to the number alone.

These recorded examples may help you get a feel for the data.
compound | reported.value
O=C(N/N=C\c1cc(Cl)cc(Cl)c1O)c1ccccc1Oc1ccccc1 | 0.891
Cc1c(C(=O)NCCNc2ccc(C(F)(F)F)cc2[N+](=O)[O-])cnn1-c1ccc(F)cc1 | 0.94
FC(F)(F)c1ccc(C2Sc3ccccc3N=C3c4ccccc4CC32)cc1 (centres undefined) | 0.981

normalized growth lookup needed for `Cc1c(NCN2C(=O)CCC2=O)cc2c(c1[N+](=O)[O-])C(C)(C)CC2(C)C` , thanks.
0.911

What about `CSC(SC)=C(C#N)C(=O)c1ccccc1Cl` ?
0.113

What about `Nc1ccccc1C(=O)N/N=C\c1cc(Cl)cc(Cl)c1O` ?
0.494

What about `O=C1CSC(=Nc2cc(Cl)cc(Cl)c2)N1Cc1cccnc1` ?
0.918

What about `COc1ccc(/C(C#N)=C2C=C/C(=N/O)C(Cl)=C\2)cc1` ?
0.915

What about CCOC(=O)C(O)(c1ccc(NC(=O)Nc2ccc(Cl)cc2)cc1)C(F)(F)F (centres undefined) ?
0.992

What about CC(Oc1ccc(Cl)cc1Cl)C(=O)NNC(=S)Nc1ccccc1 (centres undefined) ?
0.98

What about `Cc1nn(Cc2cccc(C(=O)O/N=C(/N)c3ccc(Cl)cc3)c2)c(C)c1Br` ?
0.947

What about `Fc1ccc(Nc2nc(-c3ccc(F)c(F)c3)cs2)c(F)c1` ?
0.113

What about `Cc1c(Cl)cccc1N=C1SCC(=O)N1Cc1ccco1` ?
0.892

What about `CCCCc1ccc(N=CNO)c(C)c1` ?
0.321

###

Assay: chemical genetic growth profiling, strain panel (AID 1159580);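 further: tested at 20 µM; growth read once vehicle control cultures reached saturation at 30 °C; 1 = growth at the plate median or of vehicle wells; lower values mean less growth of the strain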
Conditions: S. cerevisiae deletion strains, growth OD, locus YDR101C, strain arx1, active compounds read low
In all, about 5,500 compounds went through this assay and about 2,000 (36%) were called active. Inconclusive results (about 18%) are left out. The list shows a part of the results.
Each entry below carries its reported normalized growth.
Keep the answer to the number alone.

These recorded examples may help you get a feel for the data.
compound | normalized growth
COc1cc(O)c(C)c(O)c1 | 1
CC(=O)O[C@@H]1CC2C(C)(C)C(=O)[C@@H]3O[C@@H]3[C@]2(C)C2CC[C@]3(C)C(=CC(=O)O[C@H]3c3ccoc3)[C@@]21C (some centres undefined) | 0.975

normalized growth lookup needed for `C[C@H]1C(=O)O[C@@H]2CCN3CC=C(COC(=O)[C@](C)(O)[C@]1(C)O)[C@H]23` , thanks.
0.994

What about COC(=O)C[C@H]1C(C)(C)[C@@H](OC(C)=O)[C@@H]2CC3C4CC(=O)O[C@@H](c5ccoc5)[C@]4(C)CCC3[C@@]1(C)C2=O (some centres undefined) ?
0.996

What about `N#C/C(=C\c1ccc(O)cc1)C(=O)O` ?
1.01

What about `c1coc(CNc2ncnc3nc[nH]c23)c1` ?
0.996

What about `O=C(CCCN1CC=C(n2c(=O)[nH]c3ccccc32)CC1)c1ccc(F)cc1` ?
0.983

What about `CC1(C)S[C@@H]2[C@H](NC(=O)COc3ccccc3)C(=O)N2[C@H]1C(=O)O` ?
1.02

What about `O=[N+]([O-])/N=C1/NCCN1Cc1ccc(Cl)cc1` ?
0.998

What about `O=c1[nH]c2ccccc2n1C1CCN(CCCC(c2ccc(F)cc2)c2ccc(F)cc2)CC1` ?
1

These measurements were taken from PubChem BioAssay AID1159580.
